Below is a list of entries, each paired with its recorded HIJ Clint (avg) value.
settings: human, pH 7.4
Please don't drop the unit; write it after the number.

Example compounds with recorded HIJ Clint (avg):
compound | HIJ Clint (avg)
CCOC(C)(C)C(=O)OCOC(=O)C1=C(S[C@H]2CC[S@@+]([O-])C2)S[C@@H]2[C@@H]([C@@H](C)O)C(=O)N12 [Compound 2] | 0.13 mL/min
CC(=O)OCOC(=O)C1=C(S[C@H]2CC[S@@+]([O-])C2)S[C@@H]2[C@@H]([C@@H](C)O)C(=O)N12 [G] | 0.18 mL/min
C[C@@H](O)[C@H]1C(=O)N2C(C(=O)OCOC(=O)C(C)(C)C)=C(S[C@H]3CC[S@@+]([O-])C3)S[C@H]12 (racemic) [Compound B2, reference compound] | 0.09 mL/min
C[C@@H](O)[C@H]1C(=O)N2C(C(=O)OCOC(=O)OC3CCC(C)(C)CC3)=C(S[C@H]3CC[S@@+]([O-])C3)S[C@H]12 [Compound A] | 0.38 mL/min
CCC(CC)C(=O)OCOC(=O)C1=C(S[C@H]2CC[S@@+]([O-])C2)S[C@@H]2[C@@H]([C@@H](C)O)C(=O)N12 [Compound 1] | 0.07 mL/min

Next compound, please.
IN: Report measured HIJ Clint (avg); entry is C[C@@H](O)[C@H]1C(=O)N2C(C(=O)OCOC(=O)C(C)(C)C)=C(S[C@H]3CC[S@@+]([O-])C3)S[C@H]12 [Compound B1, reference compound]
OUT: 0.11 mL/min

Where do these numbers come from? They come from patent US7795244B2.
